As shown below, each of these binders has a reported OD450 value.
- TARGET OR TEST SYSTEM: T1, murine CD22 protein (ACROBiosystems, SI2-M52Ha) (murine, UniProt P35329 22-708)
- T1 construct: extracellular domain; also called murine CD22-ECD; murine CD22-ECD-His
- T1 sequence (looked up): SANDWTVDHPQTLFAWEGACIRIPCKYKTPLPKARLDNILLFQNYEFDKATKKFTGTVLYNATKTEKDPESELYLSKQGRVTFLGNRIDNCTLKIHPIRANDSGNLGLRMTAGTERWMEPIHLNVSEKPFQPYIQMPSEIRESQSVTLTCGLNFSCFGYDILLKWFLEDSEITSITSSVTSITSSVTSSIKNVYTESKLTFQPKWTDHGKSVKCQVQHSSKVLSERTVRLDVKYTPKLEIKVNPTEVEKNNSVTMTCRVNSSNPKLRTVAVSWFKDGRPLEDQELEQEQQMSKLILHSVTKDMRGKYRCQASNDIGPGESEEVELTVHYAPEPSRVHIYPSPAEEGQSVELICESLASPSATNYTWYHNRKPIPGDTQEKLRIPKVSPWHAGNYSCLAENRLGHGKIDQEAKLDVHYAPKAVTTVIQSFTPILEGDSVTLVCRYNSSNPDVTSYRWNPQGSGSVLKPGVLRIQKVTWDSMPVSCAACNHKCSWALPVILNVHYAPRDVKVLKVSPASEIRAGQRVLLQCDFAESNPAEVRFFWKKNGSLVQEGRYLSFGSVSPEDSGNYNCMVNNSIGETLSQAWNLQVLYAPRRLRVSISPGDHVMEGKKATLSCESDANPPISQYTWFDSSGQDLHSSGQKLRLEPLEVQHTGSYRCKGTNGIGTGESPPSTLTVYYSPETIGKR
- PROTOCOL DESCRIPTION: ELISA, coated murine CD22, 100 nM Ab
Hi! Could you send only the number? It should be in OD450, unit omitted.

Example cases with answers are listed next.
# BINDER, UNITS, OD450
data = [
    ("F2.99.1 human-murine chimeric antibody (antibody, human IgG1, lambda, V domains shown, Chimeric, human IgG1 / lambda; VL tied by name) VH: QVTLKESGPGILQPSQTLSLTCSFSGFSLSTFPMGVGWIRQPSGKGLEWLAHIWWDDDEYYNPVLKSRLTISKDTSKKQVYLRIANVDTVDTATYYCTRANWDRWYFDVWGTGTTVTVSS VL: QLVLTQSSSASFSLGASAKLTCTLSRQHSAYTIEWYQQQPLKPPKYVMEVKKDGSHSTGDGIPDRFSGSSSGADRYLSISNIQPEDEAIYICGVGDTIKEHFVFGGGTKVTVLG", "OD450", 0.07),
    ("F1.257.3 human-murine chimeric antibody (antibody, human IgG1, kappa, V domains shown, Chimeric, human IgG1 / kappa; VL tied by name) VH: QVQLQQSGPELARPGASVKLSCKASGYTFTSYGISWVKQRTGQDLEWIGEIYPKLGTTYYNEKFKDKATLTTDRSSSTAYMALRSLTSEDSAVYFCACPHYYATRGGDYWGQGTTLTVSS VL: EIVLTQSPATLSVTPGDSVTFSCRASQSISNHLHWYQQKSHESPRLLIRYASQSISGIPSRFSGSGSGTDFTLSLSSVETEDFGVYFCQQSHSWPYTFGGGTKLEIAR", "OD450", 0.2),
    ("F2.104.10 human-murine chimeric antibody (antibody, human IgG1, lambda, V domains shown, Chimeric, human IgG1 / lambda) VH: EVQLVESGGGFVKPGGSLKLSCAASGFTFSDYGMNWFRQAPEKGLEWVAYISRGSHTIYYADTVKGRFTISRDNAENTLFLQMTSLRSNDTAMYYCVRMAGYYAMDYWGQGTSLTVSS VL: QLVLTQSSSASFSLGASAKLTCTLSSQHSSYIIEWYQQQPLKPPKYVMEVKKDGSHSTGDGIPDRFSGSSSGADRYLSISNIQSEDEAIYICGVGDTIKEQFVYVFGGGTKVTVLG", "OD450", 0.07),
    ("F1.200.11 human-murine chimeric antibody (antibody, human IgG1, kappa, V domains shown, Chimeric, human IgG1 / kappa) VH: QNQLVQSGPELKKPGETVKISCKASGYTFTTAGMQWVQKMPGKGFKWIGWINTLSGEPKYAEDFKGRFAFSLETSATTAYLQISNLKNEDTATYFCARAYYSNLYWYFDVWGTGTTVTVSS VL: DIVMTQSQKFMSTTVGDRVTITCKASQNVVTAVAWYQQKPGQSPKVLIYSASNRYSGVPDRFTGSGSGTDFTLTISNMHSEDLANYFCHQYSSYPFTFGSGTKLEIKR", "OD450", 0.07),
]

What does the data say about its OD450? Entry: F2.205.9 human-murine chimeric antibody (antibody, human IgG1, lambda, V domains shown, Chimeric, human IgG1 / lambda; VL tied by name) VH: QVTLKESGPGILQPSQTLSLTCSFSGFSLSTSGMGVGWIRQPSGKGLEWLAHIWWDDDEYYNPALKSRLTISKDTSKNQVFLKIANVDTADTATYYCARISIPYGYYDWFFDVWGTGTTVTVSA VL: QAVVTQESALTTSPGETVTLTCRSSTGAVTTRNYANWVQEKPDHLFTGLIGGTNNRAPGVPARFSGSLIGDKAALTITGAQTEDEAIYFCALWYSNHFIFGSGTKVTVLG
0.07

What does the data say about its OD450? Entry: F1.17.1 human-murine chimeric antibody (antibody, human IgG1, kappa, V domains shown, Chimeric, human IgG1 / kappa) VH: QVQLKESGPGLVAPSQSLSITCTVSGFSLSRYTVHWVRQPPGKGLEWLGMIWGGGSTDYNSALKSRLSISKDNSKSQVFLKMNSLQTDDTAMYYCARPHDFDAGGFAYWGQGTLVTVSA VL: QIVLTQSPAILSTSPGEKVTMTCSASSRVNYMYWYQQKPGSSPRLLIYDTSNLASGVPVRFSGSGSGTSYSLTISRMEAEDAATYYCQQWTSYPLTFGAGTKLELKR
0.07

These data points were gathered from patent US20240084003A1.
